- experimental_target: Ct-AChBP (Capitella teleta, UniProt I6L8L2)
outcome_measure: pKi
FYI, pKi means -log10 of a concentration in mol per litre.

Documented pKi of CNC(=O)OCC[C@H]1C[C@@H]1c1cncc(OC[C@@H]2CCN2)c1 : 7.66

Origin of measurements: paper PMC3464052
